Source: paper PMC9635925

# Measured Target: MRGPRX2-WT (wild-type MRGPRX2 receptor) (Homo sapiens)
# Construct: expressed in transfected cells
# Measurement Notes: Primary HTS, Ca2+ mobilization (fluorescence ratio, B-score) in HEK293-Gα15 cells stably expressing wild-type MRGPRX2
# Assay type: cell-based
# Test Parameters: 10 μM compound, Supplementary Table 1
Structures can show the parent of a compound that is named as a salt.
Value Type: B-scores (WT)
Lab note: jot the number down without any unit.

Q) GET /values?readout=B-scores (WT)&item= CC(CN(C)C)CN1c2ccccc2CCc2ccccc21 (centres unmarked) [Trimipramine Maleate]
A) 23.09

Q) GET /values?readout=B-scores (WT)&item= CN1CCCC(n2nc(Cc3ccc(Cl)cc3)c3ccccc3c2=O)CC1 (centres unmarked) [Azelastine Hydrochloride]
A) 36.21

Q) GET /values?readout=B-scores (WT)&item= CC(C)NCC(O)c1cc(O)cc(O)c1 (centres unmarked) [Metaproterenol]
A) 20.54

Q) GET /values?readout=B-scores (WT)&item= Br.COc1ccc2c(c1)[C@]13CCCC[C@@H]1[C@H](C2)N(C)CC3.O
A) 23.02

Q) GET /values?readout=B-scores (WT)&item= CN1CCC(=C2c3ccccc3CCc3sccc32)CC1.O=C(O)CC(O)C(=O)O [Pizotyline Malate]
A) 39.73

###

Change of B-scores (%) overview
# Measured Target: MRGPRX2-MUT (MRGPRX2 N62S mutation) (Homo sapiens, UniProt Q96LB1, N62S)
# Construct: expressed in transfected cells
# Sequence (Q96LB1 1-330 N62S): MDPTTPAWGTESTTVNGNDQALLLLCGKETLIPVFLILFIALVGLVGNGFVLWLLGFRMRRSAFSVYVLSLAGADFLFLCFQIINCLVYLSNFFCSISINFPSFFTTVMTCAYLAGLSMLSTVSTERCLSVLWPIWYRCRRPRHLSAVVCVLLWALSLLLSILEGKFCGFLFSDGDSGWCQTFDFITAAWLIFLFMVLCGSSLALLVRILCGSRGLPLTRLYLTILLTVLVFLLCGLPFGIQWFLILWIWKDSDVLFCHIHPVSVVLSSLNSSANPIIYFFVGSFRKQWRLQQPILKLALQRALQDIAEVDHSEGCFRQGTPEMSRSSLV
# Measurement Notes: Primary HTS, Ca2+ mobilization (fluorescence ratio, B-score) in HEK293-Gα15 cells stably expressing the MRGPRX2 N62S mutation
# Format: cell-based
# Test Parameters: MRGPRX2-MUT in comparison to MRGPRX2-WT cells, 10 μM, Supplementary Table 1
Counter-ions that a name gives are not always drawn.
Output spec: scalar in %, unitless text.

Known Change of B-scores (%) results, listed for orientation:
| Compound | Observed Result |
| --- | --- |
| CN1CCC(=C2c3ccccc3CC(=O)c3sccc32)CC1 [Ketotifen] | -93.13 |
| CN1[C@@H]2CC[C@H]1C[C@@H](OC(=O)C(CO)c1ccccc1)C2 (some centres unmarked) [Atropine] | -105.08 |
| NCCC(O)(P(=O)([O-])O)P(=O)([O-])O.[Na+].[Na+] [Pamidronate disodium] | -37.79 |

Q) GET /values?readout=Change of B-scores (%)&item= CN(C)CCc1c[nH]c2ccc(CS(=O)(=O)N3CCCC3)cc12 [Almotriptan]
A) -83.88

Q) GET /values?readout=Change of B-scores (%)&item= CC12CC3CC(C)(C1)CC(N)(C3)C2 [Memantine Hydrochloride]
A) -99.82

Q) GET /values?readout=Change of B-scores (%)&item= CN(C)CCN1C(=O)c2ccccc2N(C)c2ccccc21 [Dibenzepin]
A) -106.37

Q) GET /values?readout=Change of B-scores (%)&item= COc1ccc2c3c1O[C@H]1C[C@@H](O)C=C[C@@]31CCN(C)C2 [Galantamine]
A) -96.90

Q) GET /values?readout=Change of B-scores (%)&item= CC(CN(C)C)CN1c2ccccc2Sc2ccccc21.CC(CN(C)C)CN1c2ccccc2Sc2ccccc21.O=C(O)C(O)C(O)C(=O)O (centres unmarked) [Trimeprazine Tartrate]
A) -29.51

###

# Measured Target: MRGPRX2-MUT (MRGPRX2 N62S mutation) (Homo sapiens, UniProt Q96LB1, N62S)
# Construct: expressed in transfected cells
# Measurement Notes: Primary HTS, Ca2+ mobilization (fluorescence ratio, B-score) in HEK293-Gα15 cells stably expressing the MRGPRX2 N62S mutation
# Assay type: cell-based
# Test Parameters: MRGPRX2-MUT versus MRGPRX2-WT cells, 10 μM, Supplementary Table 2
Value Type: Change of B-scores (%)
Output spec: scalar in %, unitless text.

Q) GET /values?readout=Change of B-scores (%)&item= CNC[C@H](O)c1ccc(O)c(O)c1 [Epinephrine Bitartrate]
A) -54.24

Q) GET /values?readout=Change of B-scores (%)&item= CN(C)CCOC(c1ccccc1)c1ccc(Br)cc1.Cl (stereo not drawn) [Bromazine hydrochloride]
A) -100.41

Q) GET /values?readout=Change of B-scores (%)&item= CN1[C@@H]2CC(OC(=O)[C@H](CO)c3ccccc3)C[C@H]1[C@@H]1O[C@@H]12.Cl (stereo partly drawn) [Hyoscine hydrochloride]
A) -94.9

Q) GET /values?readout=Change of B-scores (%)&item= CN1[C@@H]2CC[C@H]1C[C@@H](OC(=O)[C@H](CO)c1ccccc1)C2
A) -96.31

Q) GET /values?readout=Change of B-scores (%)&item= CC(C)(C)NCC(O)c1ccc(O)c(CO)c1.CC(C)(C)NCC(O)c1ccc(O)c(CO)c1.O=S(=O)(O)O (stereo not drawn) [Albuterol sulfate]
A) -75.51

Q) GET /values?readout=Change of B-scores (%)&item= CC(=O)OCC[N+](C)(C)C [Acetylcholine]
A) 245.01

###

B-scores (MUT) overview
# Measured Target: MRGPRX2-MUT (MRGPRX2 N62S mutation) (Homo sapiens, UniProt Q96LB1, N62S)
# Construct: expressed in transfected cells
# Measurement Notes: Primary HTS, Ca2+ mobilization (fluorescence ratio, B-score) in HEK293-Gα15 cells stably expressing the MRGPRX2 N62S mutation
# Format: cell-based
# Test Parameters: 10 μM compound, MRGPRX2-MUT (N62S) cells, Supplementary Table 1
Structures can show the parent of a compound that is named as a salt.

Known B-scores (MUT) results, listed for orientation:
| Compound | Measured Target | B-scores (MUT) |
| --- | --- | --- |
| CN1CCC(=C2c3ccccc3C=Cc3ccccc32)CC1 [Cyproheptadine Hydrochloride] | MRGPRX2-MUT (MRGPRX2 N62S mutation) (Homo sapiens, UniProt Q96LB1, N62S) | 2.29 |
| CC(C)NCC(O)c1ccc(O)c(O)c1 (stereo not drawn) | MRGPRX2-MUT (MRGPRX2 N62S mutation) (Homo sapiens, UniProt Q96LB1, N62S) | 6.75 |
| CNC[C@H](O)c1ccc(O)c(O)c1 [Epinephrine Bitartrate] | MRGPRX2-MUT (MRGPRX2 N62S mutation) (Homo sapiens, UniProt Q96LB1, N62S) | 11.72 |

Q) What is its B-scores (MUT) for MRGPRX2-MUT (MRGPRX2 N62S mutation) (Homo sapiens, UniProt Q96LB1, N62S)? Entry: CC(=O)OCC[N+](C)(C)C [Acetylcholine]
A) 80.61

Q) What is its B-scores (MUT) for MRGPRX2-MUT (MRGPRX2 N62S mutation) (Homo sapiens, UniProt Q96LB1, N62S)? Entry: CN1CCC(=C2c3ccccc3CCc3sccc32)CC1.O=C(O)CC(O)C(=O)O [Pizotyline Malate]
A) 1.29

Q) What is its B-scores (MUT) for MRGPRX2-MUT (MRGPRX2 N62S mutation) (Homo sapiens, UniProt Q96LB1, N62S)? Entry: CN1[C@@H]2CC[C@H]1C[C@@H](OC(=O)C(CO)c1ccccc1)C2 (stereo partly drawn) [Atropine Sulfate Monohydrate]
A) 0.90

Q) What is its B-scores (MUT) for MRGPRX2-MUT (MRGPRX2 N62S mutation) (Homo sapiens, UniProt Q96LB1, N62S)? Entry: CC(CN(C)C)CN1c2ccccc2CCc2ccccc21 (stereo not drawn) [Trimipramine Maleate]
A) 3.48

Q) What is its B-scores (MUT) for MRGPRX2-MUT (MRGPRX2 N62S mutation) (Homo sapiens, UniProt Q96LB1, N62S)? Entry: CC(=O)OC(C)C[N+](C)(C)C (stereo not drawn) [Methacholine Chloride]
A) 37.31

Q) What is its B-scores (MUT) for MRGPRX2-MUT (MRGPRX2 N62S mutation) (Homo sapiens, UniProt Q96LB1, N62S)? Entry: Cl.NC1CCN(c2c(F)cc3c(=O)c(C(=O)O)cn(C4CC4)c3c2Cl)C1 (stereo not drawn) [Clinafoxacin Hydrochloride]
A) 0.92

###

# Measured Target: MRGPRX2-WT (wild-type MRGPRX2 receptor) (Homo sapiens, UniProt Q96LB1)
# Construct: expressed in transfected cells
# Measurement Notes: Primary HTS, Ca2+ mobilization (fluorescence ratio, B-score) in HEK293-Gα15 cells stably expressing wild-type MRGPRX2
# Format: cell-based
# Test Parameters: 10 μM compound, Supplementary Table 2
Where a name gives a salt, the structure may show the parent alone.
Value Type: B-scores (WT)

Known B-scores (WT) results, listed for orientation:
| Molecule | B-scores (WT) |
| --- | --- |
| CNC[C@H](O)c1ccc(O)c(O)c1 [Epinephrine Bitartrate] | 25.6 |
| COc1ccc2c(c1)[C@]13CCCC[C@@H]1[C@H](C2)N(C)CC3 [Dextromethorphan hydrobromide] | 23.02 |

Now turn to the next molecule.
Q) GET /values?readout=B-scores (WT)&item= O=C(O)c1cn(-c2ccc(F)cc2)c2cc(N3CCNCC3)c(F)cc2c1=O [Sarafloxacin hydrochloride]
A) 15.97
